experimental-system: DNA polymerase theta [1-894] (UniProt O75417)
Sequence (O75417 1-894): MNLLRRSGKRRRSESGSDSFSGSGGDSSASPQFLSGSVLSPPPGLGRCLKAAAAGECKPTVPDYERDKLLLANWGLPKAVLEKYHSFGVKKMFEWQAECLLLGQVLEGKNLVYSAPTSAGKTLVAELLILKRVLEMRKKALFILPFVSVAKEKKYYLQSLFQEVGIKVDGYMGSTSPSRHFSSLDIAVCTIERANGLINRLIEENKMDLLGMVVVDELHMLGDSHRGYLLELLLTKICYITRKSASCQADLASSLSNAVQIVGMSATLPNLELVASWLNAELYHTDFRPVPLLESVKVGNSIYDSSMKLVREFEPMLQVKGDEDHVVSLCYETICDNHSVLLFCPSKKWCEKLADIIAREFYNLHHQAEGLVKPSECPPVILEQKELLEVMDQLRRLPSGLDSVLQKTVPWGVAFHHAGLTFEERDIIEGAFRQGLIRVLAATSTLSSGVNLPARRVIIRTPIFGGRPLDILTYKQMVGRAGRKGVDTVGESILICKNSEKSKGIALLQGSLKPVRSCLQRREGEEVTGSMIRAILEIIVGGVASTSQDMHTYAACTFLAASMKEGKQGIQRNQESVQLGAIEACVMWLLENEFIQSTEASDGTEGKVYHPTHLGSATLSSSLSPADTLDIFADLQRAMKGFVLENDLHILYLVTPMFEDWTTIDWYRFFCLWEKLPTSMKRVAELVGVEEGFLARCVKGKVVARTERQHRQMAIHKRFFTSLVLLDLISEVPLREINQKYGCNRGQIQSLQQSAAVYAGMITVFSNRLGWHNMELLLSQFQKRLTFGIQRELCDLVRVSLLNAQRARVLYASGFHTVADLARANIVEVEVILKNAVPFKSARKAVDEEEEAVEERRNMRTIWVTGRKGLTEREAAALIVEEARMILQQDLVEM
quantity-measured: IC50 (µM)

[I] Cc1ccc(-c2ccc3nc(NC(=O)c4ccc(C#N)nc4N4CCOCC4)sc3n2)cc1
[II] COc1ccccc1-c1cnncc1C(=O)Nc1nc2ccc(-c3ccc(Cl)cc3OC(C)C)nc2s1
## Input Dear colleague, could you let me know whether I or II has the lower recorded IC50? Thanks. // respond with label for picked entry
## Output II
